Ref: PubChem BioAssay (NCI)

# System: EKVX NSCLC
# Test Details: NCI tumour cell line growth inhibition, 48 h
Answer each item with its documented TGI.

## Task Consider the molecule `COc1cc2c(cc1OC)-c1c(c3ccc([N+](=O)[O-])cc3c(=O)n1CCCN=[N+]=[N-])C2=O` and give its recorded TGI.
## Result > 100 µM

## Task Consider the molecule `CCCn1cc(/C=N\N=C2\C(=O)Nc3ccc(C)cc32)c2ccccc21` and give its recorded TGI.
## Result > 100 µM

## Task Consider the molecule `CN(C)C[C@@H]1CCn2cc(c3ccccc32)C2=C(C(=O)NC2=O)c2cn(c3ccccc23)CCO1` and give its recorded TGI.
## Result > 10 µM

## Task Consider the molecule `O=[N+]([O-])c1cc(C(F)(F)F)cc2n[se]nc12` and give its recorded TGI.
## Result 14.1 µM

## Task Consider the molecule CN(CCO)c1nc(=O)c2c(n1C1OC(CO)C(O)C(O)C1O)CCCC2 (stereo unspecified) and give its recorded TGI.
## Result > 100 µM

## Task Consider the molecule O=C(O)CC(S)C(=O)O.[Li+].[Sb] (stereo unspecified) and give its recorded TGI.
## Result > 100 µM

* * *

# Tested on: EKVX NSCLC
# Test Details: NCI tumour cell line growth inhibition, 48 h
Parameter: TGI (µM)
All answers are understood in µM, so give the number only.

## Task Consider the compound Cc1nnc(N)nc1C/C=C/C(C)Sc1ccc(Cl)cc1 (stereo unspecified) and give its recorded TGI.
## Result 23.3

## Task Consider the compound `COc1ccc2c(c1)C(=O)/C(=C/c1cccc(OCC(=O)c3ccc([N+](=O)[O-])cc3)c1)CO2` and give its recorded TGI.
## Result 21.9

## Task Consider the compound `COc1ccc(Cl)cc1Nc1nc(C(F)(F)F)ccc1C(=O)N/N=C/c1ccccc1Cl` and give its recorded TGI.
## Result 7.22

* * *

# Tested on: PC-3 prostate
# Test Details: NCI tumour cell line growth inhibition, 48 h
Parameter: GI50

## Task Consider the compound CC1OC(OC2C(O)C(OCCc3ccc(O)c(O)c3)OC(CO)C2OC(=O)/C=C/c2ccc(O)c(O)c2)C(O)C(O)C1O (stereo not given) and give its recorded GI50.
## Result > 100 µM

## Task Consider the compound `CN(C)c1ccc(/C=N/n2c(CCCCc3n[nH]c(=S)n3/N=C/c3ccc(N(C)C)cc3)n[nH]c2=S)cc1` and give its recorded GI50.
## Result > 100 µM

## Task Consider the compound C=C1C(=O)O[C@H]2[C@H]1CC/C(CNC(=O)C(C)c1ccc(CC(C)C)cc1)=C\CC[C@@]1(C)O[C@@H]21 (stereo not given in full) and give its recorded GI50.
## Result 1.77 µM

## Task Consider the compound O=C(O)CC(S)C(=O)O.[Li+].[Sb] (stereo not given) and give its recorded GI50.
## Result > 100 µM

## Task Consider the compound `Cc1c(C(=O)/C=C/c2ccc(Cl)cc2)nnn1-c1ccnc2c(C(F)(F)F)cccc12` and give its recorded GI50.
## Result 26.1 µM

* * *

# Tested on: OVCAR-4 ovarian
# Test Details: NCI tumour cell line growth inhibition, 48 h
Answer each item with its documented TGI.
All answers are understood in µM, so give the number only.

## Task Consider the compound `CCCCCCCCCCCCSC1=CC(=O)C=CC1=O` and give its recorded TGI.
## Result 9

## Task Consider the compound `O=[N+]([O-])c1cc(C(F)(F)F)cc2n[se]nc12` and give its recorded TGI.
## Result 3.84

## Task Consider the compound Cc1nnc(N)nc1C/C=C/C(C)Sc1ccc(Cl)cc1 (stereo not drawn) and give its recorded TGI.
## Result 48

## Task Consider the compound CC(/C=C1\CCC(CN(C)C)C1=O)c1cccc(Br)c1 (stereo not drawn) and give its recorded TGI.
## Result 32.3

## Task Consider the compound `Cc1cnc(-c2ccc(-c3ccc(NC(=O)Nc4cccc(C(F)(F)F)c4)cc3F)c3c2C(=O)NC3)[nH]1` and give its recorded TGI.
## Result 23.8

## Task Consider the compound `CN(CCCCCCCCNc1ccnc2ccccc12)Cc1ccc(-c2ccc(-c3ccc(C#N)cc3)s2)cc1` and give its recorded TGI.
## Result 1.99

## Task Consider the compound `Cc1ccc2c(c1)C(=O)/C(=C/c1cccc(OCC(=O)c3ccc(Cl)cc3)c1)CS2` and give its recorded TGI.
## Result 18.5

## Task Consider the compound CC(C)(Cl)C(Cl)CC/C(CBr)=C(\Cl)CBr (stereo not drawn) and give its recorded TGI.
## Result 2.9

## Task Consider the compound N#Cc1ccc(O)c(C2=NCC(c3ccc(-c4ccccc4)cc3)O2)c1 (stereo not drawn) and give its recorded TGI.
## Result 10.1

## Task Consider the compound `Cc1ccc(/C=C2\CCS(=O)(=O)c3ccccc3C2=O)cc1` and give its recorded TGI.
## Result 34.8

## Task Consider the compound COc1ccc(C2CC(c3ccc4ccccc4c3)=NN2c2nc(O)c(C3=c4cc(Cl)ccc4=NC3=O)s2)cc1 (stereo not drawn) and give its recorded TGI.
## Result 0.0487

## Task Consider the compound CC(C)(CN1CCCCC1)C(=O)CC(SCCS(=O)(=O)O)c1ccccc1 (stereo not drawn) and give its recorded TGI.
## Result 49.4

## Task Consider the compound `CCN(CC)CCCNc1nccc2c(C)c3[nH]c4ccncc4c(=O)c3cc12` and give its recorded TGI.
## Result 3.07

## Task Consider the compound `O=c1oc2ccc(I)cc2c(=O)n1-c1ccc(I)cc1F` and give its recorded TGI.
## Result 18.4

## Task Consider the compound `Cc1cc2oc(=O)cc(OC/C=C3/CCC(=O)O3)c2cc1C` and give its recorded TGI.
## Result 13.7

## Task Consider the compound `CC(=O)c1sc2c(c1OC(=O)c1ccccc1)c(=O)n(-c1ccccc1)c(=S)n2-c1ccccc1` and give its recorded TGI.
## Result 57.9

## Task Consider the compound `Cn1cc(-c2csc(-c3cn(CCCN4CCCCC4)c4ccc(Br)cc34)n2)c2cccnc21` and give its recorded TGI.
## Result 4.19

## Task Consider the compound `CN(C)c1ccc2cc3c(cc2c1)Oc1ccccc1N3.[Cl][Zn][Cl]` and give its recorded TGI.
## Result 13.6
